# subject_of_test: 80S Ribosome
# test_protocol: Inhibition of human 80S ribosome-mediated PCSK9 translation expressed in CHO-K1 cells assessed as reduction in PCSK9 secretion
measure: EC50
A complete answer gives the number followed by the unit.

Exercise: Param item = `COc1ccc(CCC(=O)N(c2nccc3c2CC=CC3)[C@@H]2CCCNC2)cc1` ; retrieve measured EC50.
Key: 2200 nM
